- assayTarget: T1, full length human DLL4 (human, UniProt Q9NR61 27-685)
- T1 construct: whole, on cells; also called native DLL4 expressed in HEK293 cells
- T1 sequence (Q9NR61 27-685): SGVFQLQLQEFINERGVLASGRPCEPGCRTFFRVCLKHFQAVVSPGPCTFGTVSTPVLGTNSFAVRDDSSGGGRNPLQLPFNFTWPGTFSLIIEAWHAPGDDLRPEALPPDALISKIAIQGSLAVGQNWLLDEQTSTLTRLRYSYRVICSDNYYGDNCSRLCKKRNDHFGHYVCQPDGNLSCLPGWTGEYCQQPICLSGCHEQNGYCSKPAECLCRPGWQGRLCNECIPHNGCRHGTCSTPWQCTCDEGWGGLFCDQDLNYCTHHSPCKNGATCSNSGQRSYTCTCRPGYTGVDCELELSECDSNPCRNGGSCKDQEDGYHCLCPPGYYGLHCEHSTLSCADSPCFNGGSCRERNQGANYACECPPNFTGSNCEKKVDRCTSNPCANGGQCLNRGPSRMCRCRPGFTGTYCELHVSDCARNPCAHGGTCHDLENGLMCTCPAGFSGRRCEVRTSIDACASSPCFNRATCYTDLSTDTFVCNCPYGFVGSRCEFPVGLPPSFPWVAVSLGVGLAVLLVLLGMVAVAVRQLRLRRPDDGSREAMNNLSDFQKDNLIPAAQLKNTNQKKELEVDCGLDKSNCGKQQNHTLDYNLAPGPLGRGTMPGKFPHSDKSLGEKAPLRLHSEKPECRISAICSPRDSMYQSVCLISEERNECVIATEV
- assay: FMAT competition, purified antibody vs Alexa-647 human Notch1/Fc, 293T cells with human DLL4
- Procedure: To discriminate between the purified antibodies based upon their ability to prevent the interaction between full-length recombinant DLL4 and soluble Notch1/Fc, the following assays were performed. […] After a further 3 h incubation at 4° C., the amount of bound Notch1/Fc was determined by reading the fluorescence in each well using an FMAT 8200 instrument (Applied Biosystems).
Reported % inhibition at 5.6 nM values for the following binders.
Report as a plain number; the unit % is understood.

// solved cases for % inhibition at 5.6 nM follow
17F3 (antibody, IgG2, V domains shown, Fully human; also used where no isotype is printed) VH: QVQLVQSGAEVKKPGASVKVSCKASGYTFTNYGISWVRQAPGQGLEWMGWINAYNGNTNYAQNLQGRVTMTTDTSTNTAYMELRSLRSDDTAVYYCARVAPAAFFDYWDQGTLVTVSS VL: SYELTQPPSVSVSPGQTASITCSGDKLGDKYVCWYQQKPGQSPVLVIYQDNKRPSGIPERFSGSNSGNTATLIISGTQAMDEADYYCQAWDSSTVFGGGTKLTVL; 121
4B3 (antibody, IgG4, V domains shown, Fully human; also used where no isotype is printed) VH: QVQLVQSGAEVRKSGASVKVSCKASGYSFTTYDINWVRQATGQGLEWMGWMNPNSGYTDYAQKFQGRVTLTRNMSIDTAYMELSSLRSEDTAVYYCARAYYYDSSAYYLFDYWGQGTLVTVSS VL: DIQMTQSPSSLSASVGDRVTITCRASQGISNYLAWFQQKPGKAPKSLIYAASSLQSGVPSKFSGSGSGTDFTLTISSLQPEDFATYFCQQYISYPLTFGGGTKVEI; 89
4B4 (antibody, IgG4, V domains shown, Fully human; used for IgG4 rows and where no isotype is printed; also called 4B4 IgG4; 4B4.1) VH: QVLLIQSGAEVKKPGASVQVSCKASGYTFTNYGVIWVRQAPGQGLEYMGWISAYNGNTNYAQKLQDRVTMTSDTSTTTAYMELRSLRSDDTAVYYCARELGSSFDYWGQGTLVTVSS VL: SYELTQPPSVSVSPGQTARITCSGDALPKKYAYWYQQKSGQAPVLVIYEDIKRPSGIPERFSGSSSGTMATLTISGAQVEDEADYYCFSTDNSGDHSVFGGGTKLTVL; 127

Challenge: Recorded % inhibition at 5.6 nM for 12A1 (antibody, IgG4, V domains shown, Fully human; also used where no isotype is printed) VH: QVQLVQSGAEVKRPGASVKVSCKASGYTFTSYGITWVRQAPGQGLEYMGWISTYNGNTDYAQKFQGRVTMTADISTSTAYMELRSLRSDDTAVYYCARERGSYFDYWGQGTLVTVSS VL: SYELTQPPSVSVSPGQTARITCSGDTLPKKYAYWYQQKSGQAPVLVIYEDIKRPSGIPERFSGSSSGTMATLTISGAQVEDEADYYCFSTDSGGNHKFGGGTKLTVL , please?
Response given: 119

Challenge: Suppose we examine the binder 9G8 (antibody, IgG4, V domains shown, Fully human; used for IgG4 rows and where no isotype is printed; also called 9G8 IgG4) VH: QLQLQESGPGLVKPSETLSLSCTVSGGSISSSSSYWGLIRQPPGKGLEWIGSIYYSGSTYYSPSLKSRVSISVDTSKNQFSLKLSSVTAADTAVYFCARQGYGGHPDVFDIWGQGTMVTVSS VL: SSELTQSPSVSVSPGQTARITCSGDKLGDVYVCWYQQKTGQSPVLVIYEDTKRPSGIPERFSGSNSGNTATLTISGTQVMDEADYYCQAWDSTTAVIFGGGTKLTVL ; what % inhibition at 5.6 nM value has been reported?
Response given: 125
